Examples of compounds with documented TGI follow.
system: HT29 colon; test: NCI tumour cell line growth inhibition, 48 h
Respond numerically; units are µM and should not be typed.

Example cases with answers are listed next.
# compound, experimental-target, TGI [µM]
records = [
    ("COc1cc2c(NC3CCN(C(C)C)CC3)nc(C3CCCCC3)nc2cc1OCCCN1CCCC1", "HT29 colon", 3.86),
    ("O=C1C(Cl)=C(Nc2cc(Cl)ccc2O)C(=O)N1Cc1ccccc1", "HT29 colon", 59.9),
    ("CC(=O)N1C(CCc2ccccc2)CC(C)(C=O)C1Cc1ccc(O[Si](C(C)C)(C(C)C)C(C)C)cc1 (stereo not given)", "HT29 colon", 9.99),
]

GET /values?readout=TGI&item= CCCCCCCCCCCCCCCCCCOCC(C[N+]1(C)CCC(O)CC1)OCC (stereo not given)
14.9

Same read-out for O=C(OCc1ccccc1)c1ccc(NCc2cc(O)ccc2O)cc1 ?
20.3

And then O=C(Cn1c(C(=O)/C=C/c2ccc(Cl)cc2)nc2ccccc21)c1ccc(Cl)cc1 , what is it?
42.5

---

system: HCT-116 colon; test: NCI tumour cell line growth inhibition, 48 h; in the data active means GI50 below about 0.43 µM; inactive means the rest
The reply should be one of these categories: 1.0 = active, 0.0 = inactive

# molecule, experimental-target, category-label
measured = [
    ("O=c1cc(-c2ccccc2)oc2cc(OCCCCCN3CCOCC3)cc(O)c12", "HCT-116 colon", 0.0),
    ("Cc1cc2c3c([n+](C)c4ccc(F)cc4c3c1)-c1cc(F)ccc1N2C", "HCT-116 colon", 0.0),
    ("COc1cc2c(NC3CCN(C(C)C)CC3)nc(C3CCCCC3)nc2cc1OCCCN1CCCC1", "HCT-116 colon", 0.0),
    ("COCCNCc1ccc(-c2cc3nccc(Oc4ccc(NC(=O)C5(C(=O)Nc6ccc(F)cc6)CC5)cc4F)c3s2)nc1", "HCT-116 colon", 0.0),
    ("O=C1C(Cl)=C(Nc2cc(Cl)ccc2O)C(=O)N1Cc1ccccc1", "HCT-116 colon", 0.0),
]

Would you mind telling me which call this test gave C=CCC(N[C@H](CO)c1ccccc1)c1ccccn1 (some centres not stated) ?
0.0

Another molecule: CCC[CH2][Sn]([CH2]CCC)([O]C(=O)c1cc(F)ccc1F)[O]C(=O)c1cc(F)ccc1F
0.0

Try this molecule next: CN(C)c1cc2c(Nc3ccc4c(cnn4Cc4ccccc4)c3)ncnc2cn1
0.0

Next up: Cc1c(Cl)cccc1NC(=O)c1sc2nc3c(cc2c1N)C(=O)CCC3
1.0

Input COC(=O)c1ccc(NC(=O)c2ccc(NC3=C(Cl)C(=O)N(Cc4ccccc4)C3=O)cc2)cc1
0.0

Thanks! And CNCC(=O)NC(CO)C(=O)NC(CO)C(=O)NC1C(C(N)=O)OC(n2ccc(N)nc2=O)C(O)C1O (configuration not stated) ?
0.0

---

test system: OVCAR-3 ovarian; assay: NCI tumour cell line growth inhibition, 48 h
reported-property: TGI (µM)
The answer is to be given in µM; state only the numeric part.

Here's what some known entries look like.
# compound, TGI [µM]
data = [
    ("C[C@]12Cc3conc3C(O)=C1CC[C@@H]1C2CC[C@@]2(C)C1CC[C@]2(C)O (some centres not stated)", 80.7),
    ("O=C(Nc1ccc([N+](=O)[O-])cc1[N+](=O)[O-])C(=O)C(C(=O)c1ccc(Cl)c(Cl)c1)C1OC(=O)c2ccccc21 (configuration not stated)", 93.1),
]

Return reported TGI; argument: O=CC(O)C(O)C1OC(=O)c2cc(O)c(O)c(O)c2C2=C(O)C(O)=C3OC(=O)c4c(c(O)c(O)c5c4C3C2C(=O)O5)-c2c(cc(O)c(O)c2O)C(=O)OCC1O (configuration not stated)
57

Also, COc1cccc(/C=C2\SC(=S)N(/C=C3\C(=O)Oc4ccccc4C3=O)C2=O)c1O please.
95.7

And then COC(=O)c1sc2c(c1C(=O)OC)C(=NC(C)(C)C)SC2=NC(C)(C)C , what is it?
36.9

Same for Cc1nc2c(O)c3c(c(O)c2nc1C)C1C=CC3CC1
21.2

Also O=C(Cn1c(C(=O)/C=C/c2ccc(Cl)cc2)nc2ccccc21)c1ccc(Cl)cc1 , if possible.
22.9

Next entry: CN(C)CCNC(=O)c1cccc2c1Oc1cccc([N+](=O)[O-])c1O2
49.7

Can you handle C=CC(=O)Nc1ccccc1CC(c1c[nH]c2ccccc12)c1c[nH]c2ccccc12 next?
32.6

---

Consider the following compounds and their measured TGI readings.
tested on: DLD-1 colon; assay: NCI tumour cell line growth inhibition, 48 h

Worked cases, TGI given:
# compound, experimental-target, result-value
measured = [
    ("Cc1cc(Cl)ccc1N=C1NC(=O)C(CC(=O)Nc2cccc(C)c2C)S1 (stereo not given)", "DLD-1 colon", "> 100 µM"),
    ("O=S(O)CCCSSSCCCS(=O)O", "DLD-1 colon", "> 100 µM"),
    ("Cc1cc(N(CCC#N)CCC#N)ccc1/C=C(\\NC(=O)/C=C/c1ccccc1)C(=O)Nc1ccc(Cl)cc1", "DLD-1 colon", "> 100 µM"),
]

Reported TGI, compound c1ccc2c(c1)SP1Sc3ccccc3P21 (stereo not given) : ____
> 100 µM

Record: COc1cccc2c(SCC(=O)Nc3ccccc3-c3ccccc3NC(=O)CSc3c4ccccc4nc4c(OC)cccc34)c3ccccc3nc12
> 100 µM

---

// TGI lookup, one value per entry
test system: NCI/ADR-RES ovarian; test: NCI tumour cell line growth inhibition, 48 h

Given the entry CCOC(=O)CC(=O)Nc1cccc2sc3ncccc3c(=O)c12 , what TGI was observed with NCI/ADR-RES ovarian?
> 100 µM

Continue with CC(C)c1[nH]nc2c(NCc3ccc(-c4ccccn4)cc3)nc(SCCN(C)C)nc12
11.4 µM

And COc1ccc(CCc2ccc3c(c2)OCO3)cc1 ?
> 100 µM

---

Quick list: GI50 per entry.
test system: 786-0 renal; assay: NCI tumour cell line growth inhibition, 48 h

Sample records with GI50:
# molecule, result-value
measured = [
    ("c1cc(C2CCCCC2)ccc1-c1cnc2nonc2n1", "0.506 µM"),
    ("C=CCC(N[C@H](CO)c1ccccc1)c1ccccn1 (stereo partly drawn)", "> 100 µM"),
    ("Cc1ccnc2c(NC(C)CCCN)cc(O)c(O)c12 (stereo not drawn)", "71.2 µM"),
    ("CC(C)(C)C(=O)c1c(C(F)(F)F)n([O-])c2cc(Cl)c(Cl)cc2[n+]1=O", "0.466 µM"),
    ("CC(=O)[CH-]C(=O)c1ccccc1.CC(=O)[CH-]C(=O)c1ccccc1.CC[C@H](/C=C/C(C)[C@H]1CCC2[C@@H]3CC=C4C[C@@H]([O-])CC[C@]4(C)C3CC[C@@]21C)C(C)C.CC[C@H](/C=C/C(C)[C@H]1CCC2[C@@H]3CC=C4C[C@@H]([O-])CC[C@]4(C)C3CC[C@@]21C)C(C)C.Cl.[Ti+4] (stereo partly drawn)", "23 µM"),
    ("CN(C)c1cc2c(Nc3ccc4c(cnn4Cc4ccccc4)c3)ncnc2cn1", "8.76 µM"),
    ("COc1cccc(N2CCN(c3ncnc4cc[nH]c34)CC2)c1", "29.1 µM"),
]

Find GI50 (786-0 renal) for the entry CC(C)(O)CCc1cccc(C(=O)c2cnn(-c3ccc(F)cc3)c2N)c1
> 25 µM

---

// TGI lookup, one value per entry
tested on: NCI-H226 lung; assay: NCI tumour cell line growth inhibition, 48 h

# compound, reported-property, result-value
records = [
    ("Cc1nn(Cc2ccccc2)cc1C(=O)Nc1sc2c(c1C(N)=O)CCC(=O)C2", "TGI", "5.7 µM"),
]

// lookup TGI for CCCCCN(CCCCC)C(=O)[C@H](CCC(=O)O)NC(=O)c1cc2ccccc2[nH]1
> 100 µM

Next record, please: Cc1c(Cl)cccc1NC(=O)c1sc2nc3c(cc2c1N)C(=O)CCC3
> 37.1 µM

---

Recorded measurements of TGI, one per entry
system: SK-MEL-28 melanoma; experiment: NCI tumour cell line growth inhibition, 48 h

Before answering, review these 2 worked examples.
# molecule, result-value
data = [
    ("Cc1ccc(-c2c3c(nn2-c2ccc(S(=O)(=O)NC(=O)NC4CCCCC4)cc2)-c2ccccc2C3)cc1", "37.5 µM"),
    ("CN(C(=S)Cc1ccc(Cl)c(Cl)c1)C1CCCC[C@@H]1N1CCCC1 (some centres undefined)", "31.6 µM"),
]

Item under review: C(=C\c1ccncc1)/c1ccncc1 . Reported TGI?
> 100 µM

Similarly, Cc1ccc2c(n1)NC(=O)C(Cc1ccccc1)(N=[N+]=[N-])C2=O (centres undefined) ?
> 100 µM

Same lookup for O=c1[nH]nc(-c2ccccc2)n1-c1cccc([N+](=O)[O-])c1 , please.
> 100 µM

Then O=c1cc(-c2ccccc2)oc2cc(OCCCCCN3CCOCC3)cc(O)c12 ?
> 100 µM

Also Cc1cccc(Nc2nc3ccccc3nc2NS(=O)(=O)c2ccccc2)c1 , if possible.
> 100 µM

Try the molecule COc1ccc(/C=C2\Sc3nnc(-c4ccccc4)n3N=C2c2cc(F)c(Cl)cc2Cl)cc1OC
> 100 µM

Another molecule: CC1(C)N=C(c2ccccc2)SC12S[C@@H]1CCCC[C@H]1S2
> 100 µM
